Recorded TGA percentage reversal, NOV1401/anti NOV1401 ratio 1/3 (n/n), one value per entry.
# target-entity: NOV1401; further: test concentration or dose not given here
# Sequence (VL, as listed by the source): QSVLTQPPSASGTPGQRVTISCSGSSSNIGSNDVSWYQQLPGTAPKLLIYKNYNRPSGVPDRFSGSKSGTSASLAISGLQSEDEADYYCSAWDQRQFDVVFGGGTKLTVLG
# assay-text: cell-based or functional assay
Give the number; % is assumed, so skip it.

A selection of reference data follows.
| binder | units-of-measure | obs-value |
| --- | --- | --- |
| IDT3 (Fab, V domains shown, Fab; also called anti-NOV1401 Fab IDT3) VH: QVQLVESGGGLVKPGGSLRLSCAASGFTFQSAAVHWVRQAPGKGLEWVGRIKSKADGGTTDYAAPVKGRFTISRDDSKNTLYLQMNSLKTEDTAVYYCARDSPSISSYSIPYFSGMDVWGQGTLVTVSS VL: DIQMTQSPSSLSASVGDRVTITCRASQGIRAWLNWYQQKPGKAPKLLIYAASSLQSGVPSRFSGSGSGTDFTLTISSLQPEDFATYYCHQYITHPPTFGQGTKVEIKR | % | 47 |
| IDT4 (Fab, V domains shown, Fab; also called anti-NOV1401 Fab IDT4) VH: QVQLVESGGGLVKPGGSLRLSCAASGFTFSSAAVHWVRQAPGKGLEWVGRIKSKASGGTTDYAAPVKGRFTISRDDSKNTLYLQMNSLKTEDTAVYYCARDSPSISSYSIPYFSGMDVWGQGTLVTVSS VL: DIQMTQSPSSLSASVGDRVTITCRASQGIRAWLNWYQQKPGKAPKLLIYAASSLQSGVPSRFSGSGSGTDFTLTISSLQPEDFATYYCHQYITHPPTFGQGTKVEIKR | % | 53 |
| IDT12 (antibody, human IgG1, kappa, V domains shown, also called anti-NOV1401 IgG IDT12; full length IgG format for IDT2) VH: QVQLVESGGGLVKPGGSLRLSCAASGFTFSSAAVHWVRQAPGKGLEWVGRIKSKADGGTTDYAAPVKGRFTISRDDSKNTLYLQMNSLKTEDTAVYYCARDSPSISSYSIPYFSGMDVWGQGTLVTVSS VL: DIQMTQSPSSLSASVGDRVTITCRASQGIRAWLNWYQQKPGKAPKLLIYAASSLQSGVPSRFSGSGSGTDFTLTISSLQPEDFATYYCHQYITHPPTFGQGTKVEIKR | % | 64 |

In: Report measured TGA percentage reversal, NOV1401/anti NOV1401 ratio 1/3 (n/n); entry is IDT1 (Fab, V domains shown, Fab (heavy chain is VH-CH1); also called anti-NOV1401 Fab IDT1) VH: QVQLLESGGGLVQPGGSLRLSCAASGFTFSDYAMSWVRQAPGKGLEWVSVIDYSSSNTYYADSVKGRFTISRDNSKNTLYLQMNSLRAEDTAVYYCAREGYSYRSIRFDYWGQGTLVTVSS VL: DIQMTQSPSSLSASVGDRVTITCRASQSISSNLNWYQQKPGKAPKLLIYAASNLQSGVPSRFSGSGSGTDFTLTISSLQPEDFATYYCLQFDHTPFTFGQGTKVEIKR
Out: 55
